molecular target: BRAFV600E full-length (amino acids 2-766) (Homo sapiens, UniProt P15056, V600E); construct: His6-tagged BRAFV600E full-length (amino acids 2-766); His6; made in house; host or cells: baculovirus expression system (insect cells); assay: B-Raf Accelerated MEK ATPase assay (BRAMA); type: biochemical; settings: B-Raf pIC50, Table 1b; later runs, average pIC50 for the one or more runs, categorized
Sequence (P15056 2-766 V600E): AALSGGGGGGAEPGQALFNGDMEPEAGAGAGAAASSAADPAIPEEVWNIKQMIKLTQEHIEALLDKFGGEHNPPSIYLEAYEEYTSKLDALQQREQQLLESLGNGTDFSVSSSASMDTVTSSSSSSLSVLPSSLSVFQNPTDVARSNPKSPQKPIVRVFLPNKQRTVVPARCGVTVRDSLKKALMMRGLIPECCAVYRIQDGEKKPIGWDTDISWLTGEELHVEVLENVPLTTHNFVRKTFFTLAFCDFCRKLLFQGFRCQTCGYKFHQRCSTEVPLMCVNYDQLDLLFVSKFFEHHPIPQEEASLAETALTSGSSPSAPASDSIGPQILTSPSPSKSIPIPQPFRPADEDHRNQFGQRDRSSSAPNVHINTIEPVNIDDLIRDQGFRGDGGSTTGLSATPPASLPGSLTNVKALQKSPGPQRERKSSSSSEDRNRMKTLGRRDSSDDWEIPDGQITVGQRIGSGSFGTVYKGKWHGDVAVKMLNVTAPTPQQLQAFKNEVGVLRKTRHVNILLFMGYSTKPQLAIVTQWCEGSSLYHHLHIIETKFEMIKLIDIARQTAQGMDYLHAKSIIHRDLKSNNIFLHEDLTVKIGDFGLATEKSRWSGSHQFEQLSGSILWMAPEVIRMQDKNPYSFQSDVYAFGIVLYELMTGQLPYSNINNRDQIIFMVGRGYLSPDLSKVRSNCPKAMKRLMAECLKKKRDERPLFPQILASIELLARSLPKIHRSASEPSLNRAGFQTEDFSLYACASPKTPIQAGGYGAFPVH
pIC50: −log10 of the molar value.
Quantity name: pIC50

- Compound: "Nc1nccc(-c2sc(N3CCOCC3)nc2-c2cccc(NS(=O)(=O)c3ccco3)c2F)n1 [Example 62]"
  Assay value: "≥ 8.50"
- Compound: "CS(=O)(=O)CCNc1nccc(-c2sc(N3CCOCC3)nc2-c2ccc(F)c(NS(=O)(=O)c3c(F)cccc3F)c2)n1 [Example 202]"
  Assay value: "6.00 to 7.50"
- Compound: "CC(C)(C)c1nc(-c2cccc(NS(=O)(=O)C3CCCCC3)c2F)c(-c2ccnc(N)n2)s1 [Example 63]"
  Assay value: "6.00 to 7.50"
- Compound: "CC(C)(C)c1nc(-c2cccc(NS(=O)(=O)c3c(F)cccc3F)c2)c(-c2ccnc(NCCS(C)(=O)=O)n2)s1 [Example 2]"
  Assay value: "≥ 8.50"
- Compound: "CC(C)c1nc(-c2ccc(F)c(NS(=O)(=O)c3cc(F)ccc3F)c2)c(-c2ccnc(NC3CCN(S(C)(=O)=O)CC3)n2)s1 [Example 75]"
  Assay value: "≥ 8.50"
- Compound: "Nc1nccc(-c2sc(C3CCNCC3)nc2-c2cccc(NS(=O)(=O)c3c(F)cccc3F)c2F)n1 [Example 322]"
  Assay value: "≥ 8.50"
- Compound: "Nc1nccc(-c2sc(C3CCC3)nc2-c2cccc(NS(=O)(=O)c3cc(F)ccc3F)c2F)n1 [Example 117]"
  Assay value: "≥ 8.50"
